# measurement-target: PDGF-Ra (Homo sapiens, UniProt P16234)
# Construct: host or cells: G-292 human osteosarcoma cells
# Sequence (P16234 24-1089): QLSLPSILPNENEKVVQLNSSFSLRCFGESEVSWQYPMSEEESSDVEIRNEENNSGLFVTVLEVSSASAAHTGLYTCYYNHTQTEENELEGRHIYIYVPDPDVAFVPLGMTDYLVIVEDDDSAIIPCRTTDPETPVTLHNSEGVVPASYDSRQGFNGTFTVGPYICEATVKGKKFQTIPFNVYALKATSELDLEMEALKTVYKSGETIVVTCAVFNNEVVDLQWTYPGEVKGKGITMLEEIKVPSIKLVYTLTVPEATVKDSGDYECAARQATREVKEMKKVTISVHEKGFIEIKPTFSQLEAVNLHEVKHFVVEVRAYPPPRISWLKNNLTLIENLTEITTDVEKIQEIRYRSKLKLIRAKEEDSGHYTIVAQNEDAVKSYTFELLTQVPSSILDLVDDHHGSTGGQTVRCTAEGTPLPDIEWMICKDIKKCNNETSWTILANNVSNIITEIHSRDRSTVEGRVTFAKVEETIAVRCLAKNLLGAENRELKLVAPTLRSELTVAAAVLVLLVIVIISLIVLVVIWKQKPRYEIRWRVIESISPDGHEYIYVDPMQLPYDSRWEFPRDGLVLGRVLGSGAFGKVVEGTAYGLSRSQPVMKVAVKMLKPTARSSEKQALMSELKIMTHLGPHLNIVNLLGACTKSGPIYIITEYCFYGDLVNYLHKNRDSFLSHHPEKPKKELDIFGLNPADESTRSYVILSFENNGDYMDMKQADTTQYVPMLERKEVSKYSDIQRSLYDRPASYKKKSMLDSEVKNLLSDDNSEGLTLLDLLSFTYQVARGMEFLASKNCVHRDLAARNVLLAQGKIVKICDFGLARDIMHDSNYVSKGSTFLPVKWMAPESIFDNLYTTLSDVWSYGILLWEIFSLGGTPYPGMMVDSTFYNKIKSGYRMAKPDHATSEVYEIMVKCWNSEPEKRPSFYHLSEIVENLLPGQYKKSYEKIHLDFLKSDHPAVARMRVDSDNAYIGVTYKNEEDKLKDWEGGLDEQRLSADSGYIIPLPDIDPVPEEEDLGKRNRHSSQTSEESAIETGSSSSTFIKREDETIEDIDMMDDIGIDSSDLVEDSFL
# assay-details: Inhibitory activity against PDGF-Ra phosphorylation by PDGF-AA stimulation using G292
# Type: cell-based
# run-parameters: > means inhibition at indicated concentration not more than 50%, < and << not less than 50%; read-out: PDGF (E) IC50
# Method: Measurement of Inhibitory Activity Against PDGF-Ra Phosphorylation by PDGF-AA Stimulation Using G292 […] This solubilized cell solution was transferred to a 96-well plate coated with aniti-phosphotyrosine antibody PY-20, and a reaction was allowed to proceed at 4° C. overnight. […] Color development was carried out using a color development kit for peroxidase (Sumitomo Bakelite Co., Ltd.), and the absorbance was measured at 450 nm.
parameter-measured: pIC50
One number for each entry, as −log10 of the molar value.

A selection of reference data follows.
compound	data-value
COc1cc2nccc(Oc3ccc(NC(=S)NC(=O)c4ccccc4I)c(F)c3)c2cc1OC	8.05
COc1cc2nccc(Oc3ccc(NC(=S)NC(=O)c4cc(C)ccc4C)cc3Cl)c2cc1OC	7.32
COc1cc2ncnc(Oc3ccc(NC(=O)NC4CCN(CC5CCCCC5)C4)cc3)c2cc1OC (stereo not shown)	7.20

Give pIC50 for all compounds that follow.
1. COc1cc2nccc(Oc3ccc(NC(=S)NC(=O)C4CCCO4)cc3)c2cc1OC (stereo not shown)
2. COc1cc2nccc(Oc3ccc(NC(=O)OCCN4C(=O)c5ccccc5C4=O)c(C)c3C)c2cc1OC
3. COc1cc2nccc(Oc3ccc(NC(=O)N[C@H]4CCN(Cc5ccccc5)C4)cc3)c2cc1OC
4. COc1cc2nccc(Oc3ccc(NC(=S)NC(=O)c4cc(C)ccc4C)cc3)c2cc1OC
5. COc1cc2nccc(Oc3ccc(NC(=S)NC(=O)C(C)Oc4ccccc4)cc3)c2cc1OC (stereo not shown)

1: 7.68; 2: 7.80; 3: 7.34; 4: 8.00; 5: 7.28

====

# measurement-target: PDGF-Ra (Homo sapiens, UniProt P16234)
# Construct: host or cells: G-292 human osteosarcoma cells
# assay-details: Inhibitory activity against PDGF-Ra phosphorylation by PDGF-AA stimulation using G292
# Format: cell-based
# run-parameters: G292; figure within parentheses in >100( ); at 100 nM; read-out: PDGF (E) inhibition (%) at 100 nM
Please provide measured inhibition at 0.1 µM for the entries that follow.
Numbers only, in %.

Example cases with answers are listed next.
compound	result-units	data-value
CCN(CC)CCCNC(=S)Nc1cc(C)c(Oc2ccnc3cc(OC)c(OC)cc23)cc1C	%	19
CCCCN(CCCC)CCNC(=O)Nc1cc(C)c(Oc2ccnc3cc(OC)c(OC)cc23)cc1C	%	40
COc1cc2nccc(Oc3cc(C)c(NC(=O)NC4CCN(Cc5ccccc5)CC4)cc3C)c2cc1OC	%	40
COc1cc2nccc(Oc3cc(C)c(NC(=O)OC4CCOCC4)cc3C)c2cc1OC	%	28
COc1cc2ncnc(Oc3ccc(NC(=S)NCCN4CCCC4)cc3)c2cc1OC	%	45

# batch size: 2; output inhibition at 0.1 µM per entry
1. COc1cc2ncnc(Oc3ccc(NC(=S)NC(=O)Cc4ccc5ccccc5c4)cc3)c2cc1OC
2. COc1cc2ncnc(Oc3ccc(OC(=O)c4ccccc4)cc3)c2cc1OC

[34, 13]

For the 8 compounds below, give their inhibition at 0.1 µM values.
1. COc1cc2nccc(Oc3ccc(NC(=O)NC4CCN(Cc5ccccc5)CC4)c(C)c3)c2cc1OC
2. COc1cc2ncnc(Oc3ccc(NC(=S)NCCNC(C)=O)cc3)c2cc1OC
3. CCCC(CCN1CCN(C)CC1)OC(=O)Nc1ccc(Oc2ccnc3cc(OC)c(OC)cc23)cc1 (centres unmarked)
4. COc1cc2nccc(Oc3ccc(NC(=S)NC(=O)C4CCCO4)cc3Cl)c2cc1OC (centres unmarked)
5. COc1cc2nccc(Oc3ccc(NC(=S)NC(=O)c4ccc(Cl)s4)cc3Cl)c2cc1OC
6. CCCC(CCN1CCN(C)CC1)OC(=O)Nc1ccc(Oc2ncnc3cc(OC)c(OC)cc23)cc1 (centres unmarked)
7. COc1cc2ncnc(Oc3ccc(NC(=S)NCCCn4ccnc4)cc3)c2cc1OC
8. COc1cc2ncnc(Oc3ccc(NC(=S)NC4CCN(Cc5ccccc5)CC4)cc3)c2cc1OC

1. 40
2. 22
3. 26
4. 45
5. 10
6. 31
7. 46
8. 17

For each of the items listed, what is its inhibition at 0.1 µM?
1. COc1cc2ncnc(Oc3ccc(NC(=S)NCCCN4CCCC4)cc3)c2cc1OC
2. COc1cc2nccc(Oc3ccc(NC(=S)NC(=O)c4ccc(Br)s4)c(C)c3)c2cc1OC

34
35

Below are some compounds; for each one, tell me its inhibition at 0.1 µM.
1. COc1cc2nccc(Oc3cc(C)c(NC(=S)NCCNC(C)=O)cc3C)c2cc1OC
2. CCCCCCOc1ccc(C(=O)NC(=S)Nc2ccc(Oc3ccnc4cc(OC)c(OC)cc34)cc2)cc1
3. COc1cc2nccc(Oc3ccc(NC(=O)OC4CCN(C)CC4)c(C)c3C)c2cc1OC
4. COc1cc2nccc(Oc3ccc(NC(=O)NC4CCN(Cc5ccccc5)CC4)c(C)c3C)c2cc1OC

1: 32; 2: 3; 3: 20; 4: 25

State recorded inhibition at 0.1 µM for all listed compounds.
1. COc1cc2nccc(Oc3ccc(NC(=O)NC4CCN(Cc5ccccc5)CC4)c([N+](=O)[O-])c3)c2cc1OC
2. COc1cc2nccc(Oc3ccc(NC(=O)NN4CCCCC4)c([N+](=O)[O-])c3)c2cc1OC
3. COc1cc2ncnc(Oc3ccc(NC(=O)NN4CCCCC4)cc3)c2cc1OC
4. COc1cc2nccc(Oc3cc(C)c(NC(=O)OCCN4C(=O)c5ccccc5C4=O)cc3C)c2cc1OC
5. COc1cc2nccc(Oc3cc(C)c(NC(=O)Oc4cccc(C#N)c4)cc3C)c2cc1OC

[43, 39, 42, 47, 18]

Please supply inhibition at 0.1 µM for each of the following items, keeping them in order.
1. COc1cc2nccc(Oc3cc(C)c(NC(=O)NCCN4CCCC4)cc3C)c2cc1OC
2. CCCCCOc1ccc(C(=O)NC(=S)Nc2ccc(Oc3ccnc4cc(OC)c(OC)cc34)c(Cl)c2)cc1
3. COc1cc2nccc(Oc3ccc(NC(=S)NC(=O)Cc4cccs4)c(C)c3)c2cc1OC
4. COc1cc2nccc(Oc3ccc(NC(=S)NC(=O)C(C)Oc4ccccc4)cc3Cl)c2cc1OC (centres unmarked)
5. COc1cc2nccc(Oc3ccc(NC(=S)NNC4CCCCC4)c(C)c3C)c2cc1OC
6. CCCCN(CCCC)CCCNC(=S)Nc1ccc(Oc2ccnc3cc(OC)c(OC)cc23)c(C)c1C

49
7
30
31
43
33
